Cited source for all entries: patent US20140179896A1

Below, each entry is listed alongside its reported Binding to 1 nM KDR, %.
Target: T1, human vascular endothelial growth factor receptor-2 Fc chimera (KDR-Fc) (human, UniProt P35968 20-764)
T1 construct: range 1-764; also called human VEGFR-2; VEGF-R2-Fc; not shown: human IgG1 Fc
T1 sequence (P35968 20-764 limits assumed, change not shown, form in doubt): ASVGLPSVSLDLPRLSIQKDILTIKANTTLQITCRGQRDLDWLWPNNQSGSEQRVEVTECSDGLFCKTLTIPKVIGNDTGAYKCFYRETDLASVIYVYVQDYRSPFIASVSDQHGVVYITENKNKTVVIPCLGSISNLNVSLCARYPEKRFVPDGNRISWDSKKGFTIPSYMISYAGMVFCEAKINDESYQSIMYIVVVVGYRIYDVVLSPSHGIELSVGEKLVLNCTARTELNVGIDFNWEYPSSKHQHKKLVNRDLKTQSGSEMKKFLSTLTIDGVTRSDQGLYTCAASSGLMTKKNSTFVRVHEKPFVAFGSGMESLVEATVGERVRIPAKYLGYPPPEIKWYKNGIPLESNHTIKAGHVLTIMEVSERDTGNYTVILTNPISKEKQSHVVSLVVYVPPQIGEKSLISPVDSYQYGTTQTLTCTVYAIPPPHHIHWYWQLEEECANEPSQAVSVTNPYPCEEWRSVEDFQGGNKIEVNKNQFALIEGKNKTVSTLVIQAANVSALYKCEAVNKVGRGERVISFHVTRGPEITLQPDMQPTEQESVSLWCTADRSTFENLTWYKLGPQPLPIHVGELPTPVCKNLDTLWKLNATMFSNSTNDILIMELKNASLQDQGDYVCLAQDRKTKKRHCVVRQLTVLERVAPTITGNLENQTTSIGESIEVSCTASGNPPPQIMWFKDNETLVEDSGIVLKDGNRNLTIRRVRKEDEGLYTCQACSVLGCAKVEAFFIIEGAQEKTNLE
Assay: radioactive equilibrium binding, 1 nM KDR-Fc

{"binder": "3F8 PR3 (designed binder, Del 1-8) EVVAATPTSLLISWRHPHFPTRYYRITYGETGGNSPVQEFTVPLQPPTATISGLKPGVDYTITGYAVTVAQNGHELKTPISINYRT", "observed": "17%"}
{"binder": "2′H4-PR4 (designed binder, WT N-terminus) VSDVPRDLEVVAATPTSLLISWRHPHFPTRYYRITYGETGGNSPVQEFTVPLQPPTATISGLKPGVDYTITGYAVTVGPNERMLMTPISINYRT", "observed": "17%"}
{"binder": "4′B11 PR4 (designed binder, Del 1-8) EVVAATPTSLLISWRHPHFPTRYYRITYGETGGNSPVQEFTVPLQPPTATISGLKPGVDYTITGYAVTMAHNDHELLTPISINYRT", "observed": "25%"}
{"binder": "2′Del C6 PR4 (designed binder, Del 1-8) EVVAATPTSLLISWRHPHFPTRYYRITYGETGGNSPVQEFTVPLQPPTATISGLKPGVDYTITGYAVTMGFMAHELMVPISINYRT", "observed": "34%"}
{"binder": "3B5 PR3 (designed binder, Del 1-8) EVVAATPTSLLISWRHPHFPTRYYRITYGETGGNSPVQEFTVPLQPPTATISGLKPGVDYTITGYAVTFGQNGHALLTPISINYRT", "observed": "20%"}

Problem: Value lookup for Binding to 1 nM KDR, %; key = 1′DelE6 PR4 (designed binder, Del 1-8) EVVAATPTSLLISWRHPHFPTRYYRITYGETGGNSPVQEFTVPLQPPTATISGLKPGVDYTITGYAVTLAQNDRELLTPISINYRT
Solution: 24%

Problem: For 2′Del B3 PR4 (designed binder, Del 1-8) EVVAATPTSLLISWRHPHFPTRYYRITYGETGGNSPVQEFTVPLQPPTATISGLKPGVDYTITGYAVTDAPNGRELMVPISINYRT , what is its reported Binding to 1 nM KDR, %?
Solution: 17%

Problem: What measured Binding to 1 nM KDR, % goes with K8 (designed binder, Del 1-8; 279 used) EVVAATPTSLLISWRHPHFPTRYYRITYGETGGNSPVQEFTVPLQPPTATISGLKPGVDYTITGYAVTVTHNGHPLMTPISINYRT ?
Solution: 18%

Problem: # Binding to 1 nM KDR, % lookup, item 2′DelH4 PR4 (designed binder, Del 1-8) EVVAATPTSLLISWRHPHFPTRYYRITYGETGGNSPVQEFTVPLQPPTATISGLKPGVDYTITGYAVTVGPNERMLMTPISINYRT
Solution: 30%
